target_of_assay: T1, UNK ZnF1-3 (human, UniProt Q9C0B0 31-174)
T1 sequence: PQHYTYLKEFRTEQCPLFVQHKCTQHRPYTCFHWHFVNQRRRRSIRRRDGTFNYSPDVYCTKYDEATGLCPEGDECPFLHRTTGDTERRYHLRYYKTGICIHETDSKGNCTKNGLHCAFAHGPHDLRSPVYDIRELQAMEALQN
assay_text: nsRBNS (natural sequence RNA bind-n-seq); RBNS binding buffer (assumed for nsRBNS): 25 mM Tris pH 7.5, 150 mM KCl, 3 mM MgCl2, 0.01% Triton X-100, 500 ug/ml BSA, 20 U/ml SUPERase-In, 4 C; UNK is unkempt and MSI1 is Musashi-1; names of the RNAs are library labels; protein concentration not given here; high values mean tight binding
The full ranking holds about 24,000 sequences; the median of “enrichment r” is about 0.99, and the highest 2% start at about 3.7. Only a selection was taken, and the highest values are over-represented in it overall.
readout_kind: binding signal (enrichment R)

{"columns": ["binder", "unit_tag", "recorded_number"],
 "data": [
  ["chr7:118226368:118226369:-_ENSMUSG00000005610_ENSMUST00000162415|mus_hu|FALSE|FALSE (ssRNA) RNA: GGGAGUUCUACAGUCCGACGAUCCAGCAGCUGCCACCGCAGCUGCCUCCUCAGGAUCCGGUCGUCGGGGAUAGGGAAGGGAGGGGAAAGGGGAACGGAAAACAAAAAAAAGGGGGAGGGAAGGGGGAGGAAGGAGUCGGGGACCAACAGAGGAUUGAGCAUCA", "enrichment R", 1.19],
  ["chr18:35731629:35731630:+_ENSMUSG00000037236_ENSMUST00000166793|mus_hu|motif|central (ssRNA) RNA: GGGAGUUCUACAGUCCGACGAUCUAUUUUAUAGAUUAAAAAAAAAAAUUUUUUUAAAGACGGCCAAAAAGAAAGCUCAAACGGGAAAGCUAGGUUAACUUUGCUUCAAAAAUGGUAACGCCAAGAAAAAGGAUCAAUAAGGACCAACAGAGGAUUGAGCAUCA", "enrichment R", 5.52],
  ["chr18:35731629:35731630:+_ENSMUSG00000037236_ENSMUST00000166793|mus_hu|FALSE|FALSE (ssRNA) RNA: GGGAGUUCUACAGUCCGACGAUCUAUUUUAUAGAUUAAAAAAAAAAAUUUUUUUAAAGACGGCCAAAAAGAAAGCUCAAACUAGAAAGCUAGGUUAACUUUGCUUCAAAAAUGGUAACGCCAAGAAAAAGGAUCAAUAAGGACCAACAGAGGAUUGAGCAUCA", "enrichment R", 4.65]
]}
